Values compiled from patent US5516905A.

molecular target: M. pulmonis peak A pol activity (Pol III); construct: we prepared a crude extract of M. pulmonis; endogenous in cells; test: DNA polymerase activity assay, M. pulmonis peak A pol (Bio-Rex 70); settings: Fraction 7 from peak A; dGTP 10 μM; arylazopyrimidines reduced to hydrazino forms
Sequence (P13267 whole entry): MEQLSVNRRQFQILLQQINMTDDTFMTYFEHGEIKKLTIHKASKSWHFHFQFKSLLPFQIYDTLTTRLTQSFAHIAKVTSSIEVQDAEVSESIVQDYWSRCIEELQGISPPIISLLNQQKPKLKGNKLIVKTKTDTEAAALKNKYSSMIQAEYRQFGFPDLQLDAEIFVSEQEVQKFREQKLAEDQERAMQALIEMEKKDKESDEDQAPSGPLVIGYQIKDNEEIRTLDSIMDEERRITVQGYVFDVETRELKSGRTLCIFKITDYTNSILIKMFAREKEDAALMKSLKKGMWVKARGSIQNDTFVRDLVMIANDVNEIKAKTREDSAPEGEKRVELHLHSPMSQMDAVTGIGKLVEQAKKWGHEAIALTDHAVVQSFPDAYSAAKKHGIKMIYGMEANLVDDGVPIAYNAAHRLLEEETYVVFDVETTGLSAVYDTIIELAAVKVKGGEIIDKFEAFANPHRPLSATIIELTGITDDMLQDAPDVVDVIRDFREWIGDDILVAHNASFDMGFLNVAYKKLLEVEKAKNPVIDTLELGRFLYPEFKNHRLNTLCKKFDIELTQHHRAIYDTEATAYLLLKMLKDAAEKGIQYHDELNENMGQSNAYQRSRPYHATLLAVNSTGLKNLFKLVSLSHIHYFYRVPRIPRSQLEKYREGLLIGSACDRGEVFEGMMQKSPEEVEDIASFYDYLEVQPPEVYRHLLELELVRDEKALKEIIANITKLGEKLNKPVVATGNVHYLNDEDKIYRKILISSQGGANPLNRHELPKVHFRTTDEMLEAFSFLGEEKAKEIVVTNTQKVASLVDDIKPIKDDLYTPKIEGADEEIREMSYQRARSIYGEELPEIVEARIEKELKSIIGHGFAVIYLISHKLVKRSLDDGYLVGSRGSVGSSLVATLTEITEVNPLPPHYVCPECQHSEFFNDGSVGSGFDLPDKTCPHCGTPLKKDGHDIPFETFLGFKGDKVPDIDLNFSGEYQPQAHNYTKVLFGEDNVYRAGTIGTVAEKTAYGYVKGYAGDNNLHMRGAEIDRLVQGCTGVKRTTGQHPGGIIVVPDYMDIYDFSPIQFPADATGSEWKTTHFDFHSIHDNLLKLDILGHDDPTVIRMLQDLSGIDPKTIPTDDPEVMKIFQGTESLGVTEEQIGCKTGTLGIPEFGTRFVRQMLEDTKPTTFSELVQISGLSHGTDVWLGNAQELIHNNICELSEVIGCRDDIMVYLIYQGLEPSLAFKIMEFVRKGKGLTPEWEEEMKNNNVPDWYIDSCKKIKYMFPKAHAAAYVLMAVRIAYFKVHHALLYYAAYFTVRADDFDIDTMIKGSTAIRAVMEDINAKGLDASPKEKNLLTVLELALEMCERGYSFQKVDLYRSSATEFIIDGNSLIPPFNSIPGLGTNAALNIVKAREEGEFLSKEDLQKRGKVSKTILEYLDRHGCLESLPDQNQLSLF
Entries and their IC50 values follow.
Field format: number, assumed µM, no unit text.

Would you please look over these solved cases?
[[record]]
compound = "Oc1cc(N=Nc2ccc(Cl)cc2)nc(O)n1 [PCPUra, 6-(p-chlorophenylazo) uracil]"
experimentalreadout = "IC50"
recordedmeasurement = 31

[[record]]
compound = "O=c1cc(N=Nc2ccc(O)cc2)[nH]c(=O)[nH]1 [HPUra, 6-(p-Hydroxyphenylazo)-uracil]"
experimentalreadout = "IC50"
recordedmeasurement = 14

[[record]]
compound = "O=c1cc(Nc2ccc3c(c2)CCC3)[nH]c(=O)[nH]1 [TMAU, 6-(3',4'-trimethylanilino) uracil]"
experimentalreadout = "IC50"
recordedmeasurement = 11

[[record]]
compound = "O=c1cc(N=Nc2cccc(Cl)c2)[nH]c(=O)[nH]1 [MCPUra, 6-(m-chlorophenylazo)uracil]"
experimentalreadout = "IC50"
recordedmeasurement = 17


API: the following record is the query input.
Q: // returns reported IC50 for input O=c1cc(N=Nc2ccccc2)[nH]c(=O)[nH]1 [PUra, 6-(phenylazo)uracil]
Result: 20

* * *

tested on: Wild-Type BS
Entries and their MIC values follow.
Field format: number, assumed µg/mL, no unit text.

[[record]]
smilesentry = "CCCn1c(=O)cc(Nc2ccc3c(c2)CCC3)[nH]c1=O"
valueunits = "µg/mL"
recordedmeasurement = 3.5

[[record]]
smilesentry = "Cn1c(=O)cc(Nc2ccc3c(c2)CCC3)[nH]c1=O"
valueunits = "µg/mL"
recordedmeasurement = 7


Q: Please provide the recorded MIC for CCn1c(=O)cc(Nc2ccc3c(c2)CCC3)[nH]c1=O , tested on Wild-Type BS.
Result: 4

Q: Please provide the recorded MIC for CCCCn1c(=O)cc(Nc2ccc3c(c2)CCC3)[nH]c1=O , tested on Wild-Type BS.
Result: 1.8

Q: Please provide the recorded MIC for O=c1cc(Nc2ccc3c(c2)CCC3)[nH]c(=O)[nH]1 , tested on Wild-Type BS.
Result: 23

* * *

tested on: Methicillin-Resistant SA; test: Minimal inhibitory concentration vs. growth of methicillin-resistant Staphylococcus aureus; assay type: cell-based
experimentalReadout: MIC (µg/mL)
Field format: number, assumed µg/mL, no unit text.

Would you please look over these solved cases?
[[record]]
molecule = "CCCCn1c(=O)cc(Nc2ccc3c(c2)CCC3)[nH]c1=O [nC4 H9]"
recordedmeasurement = 0.5

[[record]]
molecule = "COc1cccc(OC)c1C(=O)N[C@@H]1C(=O)N2[C@@H]1SC(C)(C)[C@@H]2C(=O)O [Methicillin]"
recordedmeasurement = 128

[[record]]
molecule = "CCn1c(=O)cc(Nc2ccc3c(c2)CCC3)[nH]c1=O [C2 H5]"
recordedmeasurement = 0.5


API: the following record is the query input.
Q: // returns reported MIC for input O=c1cc(Nc2ccc3c(c2)CCC3)[nH]c(=O)[nH]1 [TMAU, 6-(3',4'-trimethylanilino) uracil]
Result: 4
